The reported numbers originate from ChEMBL document CHEMBL6078635.

Assay: Metabolic stability in human liver microsomes assessed as intrinsic clearance measured for 60 mins by LC-MS/MS analysis
Type: ADME, Microsome
Details: read-out: CLH
endpoint.label: CLint scaled (mL/min/kg)
Response body: numeric value in mL/min/kg, unit text excluded.

Quick check: CLint scaled of `N#Cc1ccc(Nc2ncc(CO)c(Nc3c(F)cc(-c4ccc(C#N)cc4)cc3F)n2)cc1` ?
0.763

====

Test system: Human immunodeficiency virus 1
Assay: Antiviral activity against HIV-1 3B harboring F227L/V106A double mutant infected in MT4 cells assessed as reduction in virus induced cytopathic effect incubated for 5 days by MTT method
Format: functional, organism-based
Settings: Human immunodeficiency virus 1, 3B, MT4, 120 h
endpoint.label: EC50

Below are worked cases with known answers.
> print(dat)
                               smiles.input  endpoint.label  data.value
1  COc1ccc(-c2cc(C)c(Oc3nc(NC4CCN(Cc5ccc(C(N)=O)cc5)CC4)nc4ccsc34)c(C)c2)cc1            EC50      297 nM
2  Cc1cc(-c2ccsc2)cc(C)c1Oc1nc(NC2CCN(Cc3ccc(C(N)=O)cc3)CC2)nc2ccsc12            EC50      854 nM
3  Cc1cc(-c2ccc(N(C)C)cc2)cc(C)c1Oc1nc(NC2CCN(Cc3ccc(C(N)=O)cc3)CC2)nc2ccsc12            EC50     1250 nM
4  Cc1cc(-c2ccc(C#N)cc2)cc(C)c1Oc1nc(NC2CCN(Cc3ccc(C(N)=O)cc3)CC2)nc2ccsc12            EC50     97.2 nM
5  Cc1cc(-c2ccc(C#N)cc2)cc(C)c1Oc1nc(NC2CCN(Cc3ccc(S(N)(=O)=O)cc3)CC2)nc2ccsc12            EC50     59.9 nM

What EC50 appears in the records for this compound with Human immunodeficiency virus 1? `Cc1cc(-c2ccoc2)cc(C)c1Oc1nc(NC2CCN(Cc3ccc(C(N)=O)cc3)CC2)nc2ccsc12`
525 nM

What reported EC50 corresponds to `Cc1cc(-c2ccc(F)cc2)cc(C)c1Oc1nc(NC2CCN(Cc3ccc(C(N)=O)cc3)CC2)nc2ccsc12` on Human immunodeficiency virus 1?
56.6 nM

====

Assay: Selectivity index, ratio of CC50 for cytotoxicity against human MT4 cells to EC50 for antiviral activity against wild type HIV-1 IIIB infected in human MT4 cells
Format: toxicity, cell-based
Settings: read-out: Selectivity Index
// NB: equality with 70000 counts as false (0); only selectivity ratio strictly below is true (1)

Sample answers from the record:
> print(dat)
                               smiles.input  discrete.label
1  N#Cc1ccc(Nc2nccc(Oc3ccc4cc(C#N)ccc4c3Br)n2)cc1       false (0)
2  Cc1cc(C#CC2CCN(Cc3ccncc3)CC2)cc(C)c1Oc1ccnc(Nc2ccc(C#N)cc2)n1        true (1)
3  Cc1cc(-c2ccc(C#N)cc2)cc(C)c1Nc1ccnc(Nc2ccc(C#N)cc2)n1        true (1)
4  N#Cc1ccc(Nc2nccc(Oc3ccc4ccccc4c3Br)n2)cc1        true (1)
5  N#Cc1ccc(Nc2ncc(C(N)=O)c(Oc3ccc4cc(C#N)ccc4c3)n2)cc1       false (0)

Answer whether the molecule `Cc1cc(-c2ccc(C#N)cc2)cc(C)c1Oc1ccnc(S(=O)(=O)CC(=O)Nc2ccc(C#N)cc2)n1` has selectivity ratio strictly less than 70000
true (1)

====

Reported values of EC50 for individual entries
Test system: Human immunodeficiency virus 1
Assay: Antiviral activity against HIV1 harboring K103N/Y181C double mutant
Format: functional, organism-based
Only the number, expressed in nM, is required.

> print(dat)
                               smiles.input  endpoint.label  data.value
1  Cc1cc(-c2ccc(C#N)cc2)cc(C)c1Oc1ccnc(S(=O)(=O)CC(=O)Nc2ccc(C#N)cc2)n1            EC50         226
2  Cc1cc(/C=C/C#N)cc(C)c1Oc1nc(NC2CCN(Cc3ccc(B(O)O)cc3)CC2)nc2c1COC2            EC50        77.9

Next up:
State the recorded EC50 for this entry: `Cc1cc(-c2ccsc2)cc(C)c1Oc1nc(NC2CCN(Cc3ccc(C(N)=O)cc3)CC2)nc2ccsc12`
4520

====

System: Human immunodeficiency virus 1
Assay: Antiviral activity against HIV1 harboring Y188L mutant infected in MT4 cells
Assay type: functional, organism-based
Details: Human immunodeficiency virus 1, MT4
endpoint.label: log10 EC50 (log10 of the value in nM)
Parameter value (number): base-10 log of EC50 in nM.

Use these answered entries as a reference point.
> print(dat)
                                   compound  endpoint.label  data.value
1  N#Cc1ccc(Nc2nccc(/C(=N/O)c3ccc(-c4ccc(F)cc4)cc3F)n2)cc1      log10 EC50        3.54
2  N#Cc1ccc(Nc2ncc(CO)c(Nc3c(F)cc(-c4ccc(C#N)cc4)cc3F)n2)cc1      log10 EC50        2.21
3  Cc1cc(/C=C/C#N)cc(C)c1Oc1nc(NC2CCN(Cc3ccc(B(O)O)cc3)CC2)nc2c1COC2      log10 EC50        1.60
4  N#Cc1ccc(Nc2nccc(C(C#N)c3ccc(-c4ccc(C#N)cc4)c(F)c3)n2)cc1 (stereo unspecified)      log10 EC50        3.99
5  N#Cc1ccc(Nc2nc(N)cc(Oc3c(F)cc(-c4ccc(C#N)cc4)cc3F)n2)cc1      log10 EC50        3.02

Now for another entry.
Which log10 EC50 reading was recorded for the compound `Cc1cc(-c2ccc(C#N)cc2)cc(C)c1Oc1ccnc(S(=O)(=O)CC(=O)Nc2ccc(C#N)cc2)n1` ?
2.09

====

Entries annotated with measured pEC50
System: Human immunodeficiency virus 1
Test: Antiviral activity against wild type HIV-1
Format: functional, organism-based
Lab note: report pEC50 as minus log10 of the concentration in molar units, number only.

Worked examples, 4 compounds total:
> print(dat)
                               smiles.input                   target.system  data.value
1  N#Cc1ccc(Nc2nccc(Oc3ccc4cc(C#N)ccc4c3Br)n2)cc1  Human immunodeficiency virus 1        8.70
2  Cc1cc(C#CC2CCN(Cc3ccncc3)CC2)cc(C)c1Oc1ccnc(Nc2ccc(C#N)cc2)n1  Human immunodeficiency virus 1        7.72
3  N#Cc1ccc(Nc2ncc(C(N)=O)c(Oc3ccc4cc(C#N)ccc4c3)n2)cc1  Human immunodeficiency virus 1        8.43
4  Cc1cc(/C=C/C#N)cc(C)c1Oc1nc(NC2CCN(Cc3ccc(B(O)O)cc3)CC2)nc2c1COC2  Human immunodeficiency virus 1        8.14

Now take the following compound into account.
Consider the compound `N#Cc1ccc(Nc2nccc(Oc3ccc4ccccc4c3Br)n2)cc1` and give its measured pEC50.
8.62

====

Measured pEC50, listed per entry.
Test system: Human immunodeficiency virus 1
Test: Antiviral activity against HIV1 harboring K103N/Y181C double mutant
Assay type: functional, organism-based
Friendly reminder that pEC50 comes from taking -log10 of the concentration in mol/L.

> print(dat)
                               smiles.input                   target.system  endpoint.label  data.value
1  Cc1cc(-c2ccc(C#N)cc2)cc(C)c1Oc1nc(NC2CCN(Cc3ccc(C(N)=O)cc3)CC2)nc2ccsc12  Human immunodeficiency virus 1           pEC50        6.90
2  Cc1cc(-c2ccoc2)cc(C)c1Oc1nc(NC2CCN(Cc3ccc(C(N)=O)cc3)CC2)nc2ccsc12  Human immunodeficiency virus 1           pEC50        6.09
3  Cc1cc(C#Cc2cccnc2)cc(C)c1Oc1ccnc(Nc2ccc(C#N)cc2)n1  Human immunodeficiency virus 1           pEC50        6.03
4  N#Cc1ccc(Nc2nc(N)cc(Oc3c(F)cc(-c4ccc(C#N)cc4)cc3F)n2)cc1  Human immunodeficiency virus 1           pEC50        8.00
5  COc1cc2cc(C#N)ccc2c(OC)c1Oc1ccnc(Nc2ccc(C#N)cc2)n1  Human immunodeficiency virus 1           pEC50        6.80

Name the recorded pEC50 for `N#Cc1ccc(Nc2nccc(Oc3ccc4cc(C#N)ccc4c3Br)n2)cc1` .
6.62

Please report the recorded pEC50 for `COc1ccc(-c2cc(C)c(Oc3nc(NC4CCN(Cc5ccc(C(N)=O)cc5)CC4)nc4ccsc34)c(C)c2)cc1` .
5.95

Tell me the measured pEC50 of `N#Cc1ccc(Nc2nccc(/C(=N/O)c3ccc(-c4ccc(F)cc4)cc3F)n2)cc1` , please.
4.64

Query: pEC50; subject: `Cc1cc(-c2ccc(F)cc2)cc(C)c1Oc1nc(NC2CCN(Cc3ccc(C(N)=O)cc3)CC2)nc2ccsc12`
6.24

Fill in: pEC50 of `Cc1cc(-c2ccc(C#N)cc2)cc(C)c1Oc1nc(NC2CCN(Cc3ccc(S(N)(=O)=O)cc3)CC2)nc2ccsc12` is ___
6.99

Look at this molecule and give its reported pEC50. `N#Cc1ccc(Nc2nccc(Oc3ccc4ccccc4c3Br)n2)cc1`
5.17
